- target-under-test: FXa (Homo sapiens, UniProt P00742)
- Sequence (P00742 235-488 limits assumed): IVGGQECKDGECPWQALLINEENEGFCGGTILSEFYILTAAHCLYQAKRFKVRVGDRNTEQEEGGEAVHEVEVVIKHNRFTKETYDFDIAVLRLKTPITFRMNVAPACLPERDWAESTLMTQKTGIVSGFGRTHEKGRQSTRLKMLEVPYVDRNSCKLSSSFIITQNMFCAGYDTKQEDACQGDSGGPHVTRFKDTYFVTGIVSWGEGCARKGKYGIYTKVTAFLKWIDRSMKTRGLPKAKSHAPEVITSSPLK
- Sequence (P00742 41-179 partner limits assumed): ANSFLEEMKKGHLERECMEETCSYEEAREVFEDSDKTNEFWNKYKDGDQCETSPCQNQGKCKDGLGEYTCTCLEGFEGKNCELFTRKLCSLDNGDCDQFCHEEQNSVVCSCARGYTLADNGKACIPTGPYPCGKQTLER
- protocol: Determination of selectivity: FXa inhibition, chromogenic substrate S2765 assay
- Type: biochemical
- assay-conditions: fold selectivity for FXIIa over FXa
readout-name: FXa (human)/FXIIa alpha (human)

Answered examples (5):
> print(dat)
                               smiles.input  measured.value
1  Cn1nnc2cc(CNC(=O)[C@@H]3C[C@@H](Cc4cccc(C(F)(F)F)c4)CN3C(=O)[C@H]3C[C@@H](c4ccccc4)CN3)ccc21              ∘∘
2  Cn1nnc2cc(CNC(=O)[C@@H]3C[C@H](NCc4ccc(Cl)cc4)CN3C(=O)[C@H](N)CCc3ccccc3)ccc21              ∘∘
3  Cn1nnc2cc(CNC(=O)[C@@H]3C[C@@H](Cc4cccnc4)CN3C(=O)[C@H](N)CCC(=O)N3CCCC3)ccc21             ∘∘∘
4  Cn1nnc2cc(CNC(=O)[C@@H]3C[C@H](c4ccccc4Oc4ccccc4)CN3C(=O)[C@H](N)CCc3ccccc3)ccc21              ∘∘
5  Cn1nnc2cc(CNC(=O)[C@@H]3C[C@H](NCCc4ccccc4)CN3C(=O)[C@H](N)CCc3ccccc3)ccc21              ∘∘

Below: the item to evaluate.
Summary line: "Cn1nnc2cc(CNC(=O)[C@@H]3C[C@@H](Cc4ccccc4C(F)(F)F)CN3C(=O)[C@H]3C[C@@H](c4ccccc4)CN3)ccc21" , FXa (Homo sapiens, UniProt P00742), reported FXa (human)/FXIIa alpha (human) = ∘∘

====

Record form. Attribute: pKi. Fill in for each entry.
- target-under-test: UniProt P00748
- Sequence (P00748 373-615 limits assumed): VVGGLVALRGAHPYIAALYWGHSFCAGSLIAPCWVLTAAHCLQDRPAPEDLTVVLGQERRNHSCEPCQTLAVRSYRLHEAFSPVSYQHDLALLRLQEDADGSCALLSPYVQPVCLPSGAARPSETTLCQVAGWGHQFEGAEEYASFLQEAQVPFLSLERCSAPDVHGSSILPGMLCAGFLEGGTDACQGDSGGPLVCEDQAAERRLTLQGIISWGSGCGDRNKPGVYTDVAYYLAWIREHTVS
- Sequence (P00748 20-372 partner limits assumed): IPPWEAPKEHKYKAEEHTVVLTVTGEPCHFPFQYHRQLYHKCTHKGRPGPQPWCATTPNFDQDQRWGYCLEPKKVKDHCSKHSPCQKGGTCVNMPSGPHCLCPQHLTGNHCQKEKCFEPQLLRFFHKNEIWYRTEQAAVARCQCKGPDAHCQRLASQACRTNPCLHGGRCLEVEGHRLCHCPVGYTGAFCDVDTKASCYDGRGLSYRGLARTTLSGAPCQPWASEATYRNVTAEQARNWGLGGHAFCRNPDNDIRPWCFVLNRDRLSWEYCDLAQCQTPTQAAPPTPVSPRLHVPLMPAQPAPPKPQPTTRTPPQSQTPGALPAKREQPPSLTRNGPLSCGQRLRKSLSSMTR
- protocol: Determination of Factor XIIa inhibition, chromogenic substrate S-2302 assay
- Format: biochemical
- assay-conditions: human FXIIa alpha
pKi: −log10 of the molar value.

The reported value for "Cn1nnc2cc(CNC(=O)[C@@H]3C[C@H](NCc4cccc(C(F)(F)F)c4)CN3C(=O)[C@H](N)CCc3ccccc3)ccc21" in terms of pKi is < 5.70

Form field pKi, entry COc1ccc(C[C@@H]2C[C@@H](C(=O)NCc3ccc4c(c3)nnn4C)N(C(=O)[C@H](N)CCC(=O)N3C4CCC3C(=O)NC4)C2)cc1 (stereo partly drawn) : 5.70 to 6.70

Quick note, pKi for "COc1ccc(C[C@@H]2C[C@@H](C(=O)NCc3ccc4c(c3)nnn4C)N(C(=O)[C@H]3C[C@@H](c4ccccc4)CN3)C2)cc1F" landed at 5.70 to 6.70

====

- target-under-test: FXa (Homo sapiens)
- protocol: Determination of selectivity: FXa inhibition, chromogenic substrate S2765 assay
- Format: biochemical
- assay-conditions: fold selectivity for FXIIa over FXa
readout-name: FXa (human)/FXIIa alpha (human)

Completed entries (count: 8):
> print(dat)
                                   compound   target.under.test  measured.value
1  Cn1nc(Cl)c2cc(CNC(=O)[C@@H]3C[C@@H](Cc4ccncc4)CN3C(=O)[C@H](N)CCC(=O)N3CCCC3)ccc21  FXa (Homo sapiens)             ∘∘∘
2  COc1ccc(C[C@@H]2C[C@@H](C(=O)NCc3cc4ccncc4[nH]3)N(C(=O)[C@H](N)CCc3ccccc3)C2)cc1  FXa (Homo sapiens)             ∘∘∘
3  CN(C)[C@H](CCC(=O)N1CCCC1)C(=O)N1C[C@H](Cc2cccnc2)C[C@H]1C(=O)NCc1ccc2c(cnn2C)c1  FXa (Homo sapiens)             ∘∘∘
4  Cn1cc(-c2cccc(C[C@@H]3C[C@@H](C(=O)NCc4ccc5c(c4)nnn5C)N(C(=O)[C@H](N)CCC(=O)N4CCCC4)C3)c2)cn1  FXa (Homo sapiens)             ∘∘∘
5  NCc1ccc(CNC(=O)[C@@H]2C[C@@H](Cc3ccc(Cl)cc3)CN2C(=O)[C@H](N)CCc2ccccc2)cc1  FXa (Homo sapiens)             ∘∘∘
6  COc1cccc(CC2C[C@@H](C(=O)NCc3ccc4c(c3)nnn4C)N(C(=O)[C@H](N)CCC(=O)N3CCCC3)C2)c1 (stereo partly drawn)  FXa (Homo sapiens)             ∘∘∘
7  Cn1nnc2cc(CNC(=O)[C@@H]3C[C@@H](Cc4ccc(F)c(F)c4)CN3C(=O)C3C[C@@H](c4ccccc4)CN3)ccc21 (stereo partly drawn)  FXa (Homo sapiens)              ∘∘
8  NCc1ccc(CNC(=O)[C@@H]2C[C@H](O)CN2C(=O)[C@H](N)CCc2ccccc2)cc1  FXa (Homo sapiens)              ∘∘

# compound Cn1nnc2cc(CNC(=O)[C@@H]3CC(Cc4ccnc(C(F)(F)F)c4)CN3C(=O)[C@H](N)CCC(=O)N3CCCC3)ccc21 (stereo partly drawn) ; its FXa (human)/FXIIa alpha (human) = ∘∘∘

get_value(item= "COc1ccc(C[C@@H]2C[C@@H](C(=O)NCc3ccc4c(c3)nnn4C)N(C(=O)[C@H]3C[C@@H](c4ccccc4)CN3C)C2)cc1" , readout=FXa (human)/FXIIa alpha (human)) returns ∘∘∘

Field FXa (human)/FXIIa alpha (human) (entry "COc1ccc(C[C@@H]2C[C@@H](C(=O)NCc3ccc4c(c3)nnn4C)N(C(=O)[C@H](N)CCC(=O)N3[C@H]4CC[C@@H]3CC4)C2)cc1" ) reads ∘∘∘

The value of FXa (human)/FXIIa alpha (human) measured for the compound "COc1ccc(C[C@@H]2C[C@@H](C(=O)NCc3ccc4c(c3)nnn4C)N(C(=O)[C@H]3C[C@@H](n4ccccc4=O)CN3)C2)cc1" turned out to be ∘∘∘

====

- target-under-test: FXIIa (Homo sapiens)
pKi: −log10 of the molar value.
readout-name: pKi

For this molecule ( "COc1ccc(C[C@@H]2C[C@@H](C(=O)NCc3ccc4c(c3)nnn4C)N(C(=O)[C@H]3C[C@@H](c4cnn(C)c4)CN3)C2)cc1" ), measured pKi is 5.70 to 6.70

The reported pKi of the molecule "COc1ccc(C[C@@H]2C[C@@H](C(=O)NCc3ccc4c(c3)nnn4C)N(C(=O)[C@H](N)CCC(=O)N3CCNC[C@H]3C)C2)cc1" was 5.70 to 6.70

get_value(item= "Cn1nnc2cc(CNC(=O)[C@@H]3C[C@@H](Cc4ccc(Cl)cc4Cl)CN3C(=O)[C@H]3C[C@@H](c4ccccc4)CN3)ccc21" , readout=pKi) returns 5.70 to 6.70

// pKi lookup, molecule = "COc1ccc(C[C@@H]2C[C@@H](C(=O)NCc3ccc4c(c3)nnn4C)N(C(=O)[C@H]3C[C@@H](N4CCCCC4)CN3)C2)cc1" , result: 5.70 to 6.70

Reported pKi of "Cn1nnc2cc(CNC(=O)[C@@H]3C[C@@H](Oc4ccccc4)CN3C(=O)[C@H](N)CCc3ccccc3)ccc21" : < 5.70

The molecule listed as "COc1ccc(C[C@@H]2C[C@@H](C(=O)NCc3ccc4c(c3)nnn4C)N(C(=O)[C@@H]3NCCc4ccccc43)C2)cc1" shows pKi equal to < 5.70

Per the records, this molecule ( CC(C)Oc1ccc(CC2C[C@@H](C(=O)NCc3ccc4c(c3)nnn4C)N(C(=O)[C@H]3C[C@@H](c4ccccc4)CN3)C2)cc1 (stereo partly drawn) ) has pKi equal to 5.70 to 6.70

Note to self: pKi recorded for "Cn1nnc2cc(CNC(=O)[C@@H]3C[C@@H](Cc4ccc(Br)cc4)CN3C(=O)[C@H](N)CCC(=O)N3CCCC3)ccc21" was > 6.70

Note to self: pKi recorded for "Cn1nnc2cc(CNC(=O)[C@@H]3C[C@@](O)(c4ccc(F)c(F)c4)CN3C(=O)[C@H](N)CCc3ccccc3)ccc21" was < 5.70

The molecule identified as "Cc1nn(C)c2ccc(CNC(=O)[C@@H]3C[C@@H](Cc4ccncc4)CN3C(=O)[C@H](N)CCC(=O)N3CCCC3)cc12" registered its pKi at 5.70 to 6.70

Short answer for "Cn1nnc2cc(CNC(=O)[C@@H]3C[C@@H](Cc4cccc5c4CCO5)CN3C(=O)[C@H](N)CCC(=O)N3CCCC3)ccc21" : pKi was 5.70 to 6.70

Lab note: measured pKi of "COc1ccc(C[C@@H]2C[C@@H](C(=O)NCc3cc4cccnc4[nH]3)N(C(=O)[C@H](N)CCC(=O)N3CCCC3)C2)cc1" was < 5.70

Given item "COc1ccc(C[C@@H]2C[C@@H](C(=O)NCc3ccc4c(c3)c(C)nn4C)N(C(=O)[C@H](N)CCC(=O)N3CCCC3)C2)cc1" , the value recorded as its pKi is 5.70 to 6.70

Entry COc1ccc(C[C@@H]2C[C@@H](C(=O)NCc3ccc4c(c3)nnn4C)N(C(=O)C(N)CC(C)(C)c3ccccc3)C2)cc1 (stereo partly drawn) , pKi reported as < 5.70

// recorded pKi for "Nc1cc(CNC(=O)[C@@H]2C[C@H](NC(=O)c3ccccc3)CN2C(=O)[C@H](N)CCc2ccccc2)ccn1" : 5.70 to 6.70

// sample "Cn1nnc2cc(CNC(=O)[C@@H]3C[C@@H](Cc4cccc(-c5ccncc5)c4)CN3C(=O)[C@H](N)CCC(=O)N3CCCC3)ccc21" , its pKi was > 6.70

Reported pKi ( "COc1ccc(C[C@@H]2C[C@@H](C(=O)NCc3ccc4c(Cl)nn(C)c4c3)N(C(=O)[C@H](N)CCC(=O)N3CCCC3)C2)cc1" ) = > 6.70

# molecule "COc1ccc(C[C@@H]2C[C@@H](C(=O)NCc3ccc4c(c3)nnn4C)N(C(=O)[C@H](N)CCC(=O)N3[C@H]4CC[C@@H]3CC4)C2)cc1" ; its pKi = 5.70 to 6.70

Just so you know, measured pKi for "Cn1nnc2cc(CNC(=O)[C@@H]3C[C@@H](Cc4ccc(F)cc4F)CN3C(=O)[C@H]3C[C@@H](c4ccccc4)CN3)ccc21" came out at 5.70 to 6.70

Given item "Cc1ccccc1C[C@@H]1C[C@@H](C(=O)NCc2ccc3c(c2)nnn3C)N(C(=O)[C@H]2C[C@@H](c3ccccc3)CN2)C1" , the value recorded as its pKi is 5.70 to 6.70

Record "Cn1nnc2cc(CNC(=O)[C@@H]3C[C@@H](Cc4cccc(F)c4)CN3C(=O)[C@H]3C[C@@H](c4ccccc4)CN3)ccc21" . Reported pKi: < 5.70

pKi measured on Cn1nnc2cc(CNC(=O)[C@@H]3CC(Cc4ccccc4Br)CN3C(=O)[C@H]3C[C@@H](c4ccccc4)CN3)ccc21 (stereo partly drawn) = < 5.70

Value of measured pKi for the entry "Nc1nccc2cc(CNC(=O)[C@@H]3C[C@H](c4ccccc4)CN3C(=O)[C@H](N)CCC(=O)N3CCCC3)ccc12" : 5.70 to 6.70

For reference, reported pKi for "Cn1nnc2cc(CNC(=O)[C@@H]3C[C@@H](Cc4cccnc4)CN3C(=O)[C@H]3C[C@@H](c4ccccc4)CN3)ccc21" stands at < 5.70
